Give measured Ki for each item. Keep answers brief.
Target sequence: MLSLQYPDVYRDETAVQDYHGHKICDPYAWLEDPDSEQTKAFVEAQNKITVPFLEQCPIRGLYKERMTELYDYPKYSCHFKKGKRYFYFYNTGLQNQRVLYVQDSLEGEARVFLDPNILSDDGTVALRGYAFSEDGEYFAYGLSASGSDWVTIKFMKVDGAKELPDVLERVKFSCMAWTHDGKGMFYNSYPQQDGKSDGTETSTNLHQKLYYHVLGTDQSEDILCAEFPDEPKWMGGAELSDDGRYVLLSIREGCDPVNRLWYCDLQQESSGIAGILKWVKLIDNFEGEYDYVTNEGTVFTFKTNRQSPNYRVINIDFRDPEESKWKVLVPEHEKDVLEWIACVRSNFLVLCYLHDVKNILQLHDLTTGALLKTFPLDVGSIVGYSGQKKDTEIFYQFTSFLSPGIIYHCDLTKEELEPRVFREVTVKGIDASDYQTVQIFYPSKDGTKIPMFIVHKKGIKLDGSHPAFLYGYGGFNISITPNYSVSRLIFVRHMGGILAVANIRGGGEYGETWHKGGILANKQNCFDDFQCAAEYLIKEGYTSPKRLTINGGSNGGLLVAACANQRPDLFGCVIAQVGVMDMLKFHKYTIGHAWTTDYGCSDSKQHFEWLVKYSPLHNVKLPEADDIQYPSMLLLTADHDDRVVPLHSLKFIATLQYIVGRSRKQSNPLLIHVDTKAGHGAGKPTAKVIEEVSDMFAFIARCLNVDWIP
Dear colleague, please send the value followed by its unit.

Incoming: So what's the measured Ki for this one? CC(=O)N[C@@H](CCCNC(=N)N)C(=O)NCCOCCOCC(=O)N[C@H](CC(=O)O)C(=O)N1CCC[C@H]1B(O)O
Outgoing: 23.9 nM

Incoming: Lookup CC(=O)N[C@@H](CCCNC(=N)N)C(=O)NCCOCCOCC(=O)NCC(=O)N1CCC[C@H]1B(O)O
Outgoing: 2.1 nM
